// data source = patent US20180298083A1

neutralisation IC50 values by entry
# EXPERIMENTAL_TARGET: gp120 of X2088 (HIV-1 strain X2088.c9)

BINDER	UNIT_SPEC	neutralisation IC50
N6 VRC27FRH1 (antibody, V domains shown) VH: SQRLVQSGPQVRKPGSSVRISCETSGYTFNAHILFWFRQAPGRGLEWVGWIKPQYGAVNFGGGFRDRVTLTRDVYREIAYMDIRGLKPDDTAVYYCARDRSYGDSSWALDAWGQGTTVVVSA VL: YIHVTQSPSSLSVSIGDRVTINCQTSQGVGSDLHWYQHKPGRAPKLLIHHTSSVEDGVPSRFSGSGFHTSFNLTISDLQADDIATYYCQVLQFFGRGSRLHIK	µg/mL	0.184
N6 N17FRH3 (antibody, V domains shown) VH: RAHLVQSGTAMKKPGASVRVSCQTSGYTFTAHILFWFRQAPGRGLEWVGWIKPQYGAVNFGGGFRDRVTLTRDIYRDTAYMDISGLRFDDTAVYYCARDRSYGDSSWALDAWGQGTTVVVSA VL: YIHVTQSPSSLSVSIGDRVTINCQTSQGVGSDLHWYQHKPGRAPKLLIHHTSSVEDGVPSRFSGSGFHTSFNLTISDLQADDIATYYCQVLQFFGRGSRLHIK	µg/mL	0.106
N6 VRC27FRH3 (antibody, V domains shown) VH: RAHLVQSGTAMKKPGASVRVSCQTSGYTFTAHILFWFRQAPGRGLEWVGWIKPQYGAVNFGGGFRDRITLTRDIYRETAFLDLTGLRFDDTAVYYCARDRSYGDSSWALDAWGQGTTVVVSA VL: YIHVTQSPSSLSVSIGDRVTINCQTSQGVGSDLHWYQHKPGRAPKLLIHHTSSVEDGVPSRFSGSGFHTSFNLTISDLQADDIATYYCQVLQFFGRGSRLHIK	µg/mL	0.509
N6 VRC27FRH2 (antibody, V domains shown) VH: RAHLVQSGTAMKKPGASVRVSCQTSGYTFTAHILFWFRQAPGRSFEWMGWIKPQYGAVNFGGGFRDRVTLTRDVYREIAYMDIRGLKPDDTAVYYCARDRSYGDSSWALDAWGQGTTVVVSA VL: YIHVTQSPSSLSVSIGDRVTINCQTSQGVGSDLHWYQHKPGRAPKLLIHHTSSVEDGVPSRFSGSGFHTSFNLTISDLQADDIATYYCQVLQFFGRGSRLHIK	µg/mL	0.143
